System: PKMYT1 (Homo sapiens (Human), UniProt Q99640) | Read-out: IC50
Sequence (Q99640 whole entry): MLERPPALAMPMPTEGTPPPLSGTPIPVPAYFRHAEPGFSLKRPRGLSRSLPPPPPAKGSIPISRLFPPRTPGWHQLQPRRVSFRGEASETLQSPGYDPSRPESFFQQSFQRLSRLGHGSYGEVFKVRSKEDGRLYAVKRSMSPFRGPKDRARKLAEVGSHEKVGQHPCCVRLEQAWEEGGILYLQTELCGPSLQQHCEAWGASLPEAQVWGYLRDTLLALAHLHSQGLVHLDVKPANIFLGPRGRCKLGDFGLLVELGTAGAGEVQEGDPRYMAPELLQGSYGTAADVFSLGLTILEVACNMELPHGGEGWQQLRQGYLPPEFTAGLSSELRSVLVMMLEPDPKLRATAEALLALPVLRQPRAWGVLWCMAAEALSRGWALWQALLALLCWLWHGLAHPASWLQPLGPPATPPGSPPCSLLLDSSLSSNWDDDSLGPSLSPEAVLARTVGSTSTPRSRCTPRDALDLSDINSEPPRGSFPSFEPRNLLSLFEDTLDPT

Can you give me IC50 for all of these, one by one?
1. Cc1ccc(O)c(C)c1-c1cnc2[nH]c(-c3cnn(C)c(=O)c3)cc2c1C#N
2. Cc1ccc(O)c(C)c1-c1cnc2[nH]c(-c3cnc(N4CC(C(=O)O)C4)nc3)c(Cl)c2c1C#N
3. Cc1ccc(O)c(C)c1-c1cnc2[nH]c(-c3ccc(N4CCN(C)CC4)nc3)cc2c1

["< 10 nM", "< 10 nM", "50 to 500 nM"]

Can you give me IC50 for all of these, one by one?
1. Cc1ccc(O)c(C)c1-c1cnc2[nH]c(-c3cnn(CC(C)(C)O)c3)cc2c1C#N
2. Cc1ccc(O)c(C)c1-c1cnc2[nH]c(-c3cnc(OC4COC4)nc3)cc2c1C#N
3. Cc1ccc(O)c(C)c1-c1cnc2[nH]c(-c3cnc(N(C)C4COC4)nc3)cc2c1C#N
4. Cc1ccc(O)c(C)c1-c1cnc2[nH]c(C3=CCCOC3)cc2c1C#N
5. Cc1ccc(O)c(C)c1-c1cnc2[nH]c(-c3cnc(NC4CC(O)C4)nc3)cc2c1C#N (stereo not drawn)

1. < 10 nM
2. < 10 nM
3. 10 to 50 nM
4. 10 to 50 nM
5. < 10 nM

Can you give me IC50 for all of these, one by one?
1. Cc1ccc(O)c(C)c1-c1cnc2[nH]c(-c3cnc(N4C5CC[C@@H]4COC5)nc3)cc2c1C#N
2. Cc1ccc(O)c(C)c1-c1cnc2[nH]c(-c3cnc(CN4CCCC4)nc3)cc2c1C#N

1. < 10 nM
2. < 10 nM

Can you give me IC50 for all of these, one by one?
1. C#Cc1cc(-c2cc3c(C#N)c(-c4c(C)ccc(O)c4C)cnc3[nH]2)cnc1N
2. Cc1ccc(O)c(C)c1-c1cnc2[nH]c(-c3cnn(C4CCOCC4)c(=O)c3)c(Cl)c2c1C#N
3. Cc1ccc(O)c(C)c1-c1cnc2[nH]c(-c3ccc4scnc4c3)cc2c1
4. Cc1ccc(O)c(C)c1-c1cnc2[nH]c(-c3cnc(N)nc3)cc2c1C#N
5. Cc1ncc(-c2cc3c(C#N)c(-c4c(C)ccc(O)c4C)cnc3[nH]2)s1
6. CCc1c(O)ccc(C)c1-c1cnc2[nH]c(-c3cnc(C)nc3)cc2c1C#N [Example 90]

1. < 10 nM
2. < 10 nM
3. 50 to 500 nM
4. < 10 nM
5. < 10 nM
6. 50 to 500 nM

Can you give me IC50 for all of these, one by one?
1. Cc1ccc(O)c(C)c1-c1cnc2[nH]c(-c3cnc4[nH]cnc4c3)cc2c1C#N
2. Cc1ncc(-c2cc3c(C(F)(F)F)c(-c4c(C)ccc(O)c4C)cnc3[nH]2)cn1
3. Cc1ccc(O)c(C)c1-c1cnc2[nH]c(-c3cnc(C4CC4)nc3)c(Cl)c2c1C#N
4. Cc1ncc(-c2cc3c(N)c(-c4c(C)ccc(O)c4C)cnc3[nH]2)cn1
5. Cc1ccc(O)c(C)c1-c1cnc2[nH]c(-c3cnc(C(N)=O)nc3)cc2c1C#N
6. Cc1ccc(O)c(C)c1-c1cnc2[nH]c(-c3cnc(N4CC(O)C4)nc3)cc2n1

1. < 10 nM
2. < 10 nM
3. < 10 nM
4. 50 to 500 nM
5. < 10 nM
6. < 10 nM

Can you give me IC50 for all of these, one by one?
1. Cc1ncc(-c2[nH]c3ncc(-c4c(C)ccc(O)c4C)nc3c2Cl)cn1
2. Cc1ncc(-c2[nH]c3ncc(-c4c(C)ccc(O)c4C)c(C#N)c3c2C#CC(C)(C)O)cn1
3. Cc1ncc(-c2[nH]c3ncc(-c4c(C)ccc(O)c4C)cc3c2C#N)cn1
4. Cc1ccc(O)c(C)c1-c1cnc2[nH]c(-c3cnc(N4C[C@@H]5C[C@H]4CO5)nc3)c(C#CC(C)(C)O)c2n1
5. Cc1ccc(O)c(C)c1-c1cnc2[nH]c(-c3ccc(N4CCN(C)CC4)nc3C)nc2c1
6. Cc1ccc(O)c(C)c1-c1cnc2[nH]c(-c3cnc(CO)nc3)cc2c1C#N
7. Cc1ccc(-c2cc3nc(-c4c(C)ccc(O)c4C)cnc3[nH]2)cn1

["< 10 nM", "< 10 nM", "10 to 50 nM", "< 10 nM", "50 to 500 nM", "< 10 nM", "< 10 nM"]

Can you give me IC50 for all of these, one by one?
1. Cc1ccc(O)c(C)c1-c1cnc2[nH]c(-c3cnc(NCCO)nc3)cc2c1C#N
2. Cc1ccc(O)c(C)c1-c1cnc2[nH]c(-c3cnc(N4CCOC4=O)nc3)c(Cl)c2c1C#N
3. Cc1ncc(-c2cc3c(C)c(-c4c(C)ccc(O)c4C)cnc3[nH]2)cn1

< 10 nM
< 10 nM
< 10 nM

# IC50 (compound: `Cc1ccc(O)c(C)c1-c1cnc2[nH]c(-c3cnc(N4CC[S@SP1](=O)(=O)CC4)nc3)c(Cl)c2c1C#N` ) is < 10 nM

###

pIC50: −log10 of the molar value.
System: PKMYT1 (Homo sapiens (Human), UniProt Q99640) | Read-out: pIC50

Worked cases, pIC50 given:
1) Cc1ccc(O)c(C)c1-c1cnc2[nH]c(-c3cnc(N4CCC(F)(F)C4)nc3)cc2c1C#N : > 8.00
2) Cc1ncc(-c2[nH]c3ncc(-c4c(C)ccc(O)c4C)cc3c2Cl)cn1 : 7.30 to 8.00

Can you give me pIC50 for all of these, one by one?
1. Cc1ccc(O)c(C)c1-c1cnc2[nH]c(-c3cnc(C(F)(F)F)nc3)cc2c1C#N
2. Cc1ccc(O)c(C)c1-c1cnc2[nH]c(-c3cnc(N4CCCC4CO)nc3)c(Cl)c2c1C#N (stereo not drawn)
3. Cc1ncc(-c2[nH]c3ncc(-c4c(C)ccc(O)c4C)c(C#N)c3c2C2CC2)cn1
4. COCCn1ncc(-c2[nH]c3ncc(-c4c(C)ccc(O)c4C)c(C#N)c3c2Cl)cc1=O
5. Cc1ccc(O)c(C)c1-c1cnc2[nH]c(-c3cnc(N4CCC4)nc3)cc2c1C#N
6. Cc1ccc(O)c(C)c1-c1cnc2[nH]c(-c3cnc(N)nc3)c(C#CC(C)(C)O)c2n1

1: > 8.00; 2: > 8.00; 3: 7.30 to 8.00; 4: > 8.00; 5: > 8.00; 6: > 8.00

###

System: UniProt Q99640 | Read-out: IC50

Worked cases, IC50 given:
1. Cc1ccc(O)c(C)c1-c1cnc2[nH]c(-c3cnc(N4CC(C)(O)C4)nc3)cc2c1C#N : < 10 nM
2. Cc1ccc(O)c(C)c1-c1cnc2[nH]c(-c3cnc(C4CC4)nc3)cc2c1C#N : < 10 nM
3. Cc1ccc(O)c(C)c1-c1cnc2[nH]c(-c3cnc(NC4CC4)nc3)cc2c1C#N : < 10 nM

Can you give me IC50 for all of these, one by one?
1. Cc1ccc(-c2cc3c(Cl)c(-c4c(C)ccc(O)c4C)cnc3[nH]2)cn1
2. Cc1ncc(-c2[nH]c3ncc(-c4c(C)ccc(O)c4C)nc3c2C#CC(C)(C)O)cn1
3. Cc1ccc(O)c(C)c1-c1cnc2[nH]c(-c3cnc(C(C)(C)O)nc3)cc2c1

["< 10 nM", "< 10 nM", "10 to 50 nM"]

Can you give me IC50 for all of these, one by one?
1. Cc1ccc(O)c(C)c1-c1cnc2[nH]c(-c3cnc(N4CC5CC4CO5)nc3)cc2c1C#N (centres unmarked)
2. Cc1ncc(-c2cc3cc(-c4c(C)ccc(O)c4C)cnc3[nH]2)cn1

1: < 10 nM; 2: 10 to 50 nM

###

Kindly supply the reported IC50 values for the records listed here.
target: UniProt Q99640
experiment: PKMYT1 HTRF Assay
Format: binding
experimental conditions: Tracer 178, GST-Tb; compound 10 μM to 0.5 nM; read-out: MYT1 HTRF IC50

Can you give me IC50 for all of these, one by one?
1. Cc1ccc(O)c(C)c1-c1cnc2[nH]c(-c3ccn(C)c(=O)c3)cc2c1
2. COCCOc1ncc(-c2cc3c(C#N)c(-c4c(C)ccc(O)c4C)cnc3[nH]2)cn1
3. Cc1ccc(O)c(C)c1-c1cnc2[nH]c(-c3cnc(N4CC(C)(O)C4)nc3)cc2c1Cl

1: 0.01 to 0.05 µM; 2: < 0.01 µM; 3: < 0.01 µM

# IC50 (compound: `Cc1ncc(-c2[nH]c3ncc(-c4c(C)ccc(O)c4C)c(Cl)c3c2F)cn1` ) is < 0.01 µM

###

Kindly supply the reported IC50 values for the records listed here.
target: PKMYT1 (Homo sapiens (Human))
experiment: PKMYT1 HTRF Assay
Format: binding
experimental conditions: Tracer 178, GST-Tb; compound 10 μM to 0.5 nM; read-out: MYT1 HTRF IC50

1. Cc1ccc(O)c(C)c1-c1cnc2[nH]c(-c3cnc(N(C)C)nc3)c(Cl)c2c1C#N : < 0.01 µM
2. Cc1ccc(O)c(C)c1-c1cnc2[nH]c(-c3cnc(N4C[C@@H]5C[C@H]4CO5)nc3)cc2n1 : < 0.01 µM
3. Cc1ncc(-c2[nH]c3ncc(-c4c(C)ccc(O)c4C)c(C#N)c3c2Sc2ccccc2)cn1 : 0.05 to 0.5 µM

Can you give me IC50 for all of these, one by one?
1. Cc1ncc(-c2[nH]c3ncc(-c4c(C)ccc(O)c4C)c(C#N)c3c2Cl)cn1 (atropisomer, axis not shown)
2. Cc1ccc(O)c(C)c1-c1cnc2[nH]c(-c3cnc(N4CC(C)(O)C4)nc3)c(Cl)c2n1
3. Cc1ccc(O)c(C)c1-c1cnc2[nH]c(-c3ccc(N4CCN(C)CC4)nc3)c(C)c2c1
4. Cc1ccc(O)c(C)c1-c1cnc2[nH]c(-c3cn[nH]c(=O)c3)cc2c1C#N

1: < 0.01 µM; 2: < 0.01 µM; 3: 0.05 to 0.5 µM; 4: < 0.01 µM
